Source: patent US20250332105A1

Experiment: Solubility profiles in pH 6.8 phosphate buffer
Format: physicochemical
Conditions: aqueous buffer, thermodynamic from solid, 37° C., 150 rpm, 10 min, n = 3
EXPERIMENTAL_READOUT: solubility at 10 min (µg/mL)

1) C=CC(=O)N1CC[C@H](n2nc(C#Cc3cc(OC)cc(OC)c3)c(C(N)=O)c2NC)C1 :: 4.88

====

Experiment: Solubility profiles in pH 6.8 phosphate buffer
Format: physicochemical
Conditions: aqueous buffer, thermodynamic from solid, 37° C., 150 rpm, 120 min, n = 3
EXPERIMENTAL_READOUT: solubility at 120 min

1. C=CC(=O)N1CC[C@H](n2nc(C#Cc3cc(OC)cc(OC)c3)c(C(N)=O)c2NC)C1 :: 7.62 µg/mL

====

Assay: Solubility profiles in pH 6.8 phosphate buffer
Format: physicochemical
Settings: aqueous buffer, thermodynamic from solid, 37° C., 150 rpm, 240 min, n = 3
EXPERIMENTAL_READOUT: solubility at 240 min

1. C=CC(=O)N1CC[C@H](n2nc(C#Cc3cc(OC)cc(OC)c3)c(C(N)=O)c2NC)C1 :: 8.47 µg/mL

====

Assay: In vivo PK, oral administration in beagle dogs
Settings: dog, blood, fasted beagle dogs, 3 mg/kg, Type A as 0.5% MC suspension, HPMCAS-10-SDD as tablet
EXPERIMENTAL_READOUT: AUC(0-t) (ng·h/mL)

1) C=CC(=O)N1CC[C@H](n2nc(C#Cc3cc(OC)cc(OC)c3)c(C(N)=O)c2NC)C1 [Type A] :: 1250

====

Test: Solubility profiles in pH 6.8 phosphate buffer
Type: physicochemical
Settings: aqueous buffer, thermodynamic from solid, 37° C., 150 rpm, 30 min, n = 3
EXPERIMENTAL_READOUT: solubility at 30 min (µg/mL)

1. C=CC(=O)N1CC[C@H](n2nc(C#Cc3cc(OC)cc(OC)c3)c(C(N)=O)c2NC)C1 [Type A] :: 7.91
